Provenance of the data: BigSolDB 2.1

conditions: in diethyl ether, 303.15 K
property_label: solubility (mole fraction)
Respond with the number and no other words.

(Q) Tell me solubility (mole fraction) reported for c1ccc(OP2(Oc3ccccc3)=NP(Oc3ccccc3)(Oc3ccccc3)=NP(Oc3ccccc3)(Oc3ccccc3)=N2)cc1
(A) 0.0178

----------
settings: in benzene, 293.25 K
property_label: solubility (mole fraction)

(Q) Tell me solubility (mole fraction) reported for CP(=O)(O)c1ccccc1
(A) 0.0386

----------
details: in 2-ethoxyethanol, 338.35 K
property_label: solubility (mole fraction)
Respond with the number and no other words.

(Q) Tell me solubility (mole fraction) reported for O=[PH](O)c1ccccc1
(A) 0.308

----------
details: in chloroform, 303.15 K
property_label: solubility (mole fraction)
Respond with the number and no other words.

(Q) Tell me solubility (mole fraction) reported for CP(=O)(O)c1ccccc1
(A) 0.156

----------
settings: in acetone, 313.35 K
property_label: solubility (mole fraction)
Respond with the number and no other words.

(Q) Tell me solubility (mole fraction) reported for CP(=O)(O)c1ccccc1
(A) 0.127

----------
conditions: in 2-ethoxyethanol, 338.45 K
property_label: solubility (mole fraction)
Respond with the number and no other words.

(Q) Tell me solubility (mole fraction) reported for CP(=O)(O)c1ccccc1
(A) 0.587

----------
details: in benzene, 323.15 K
property_label: solubility (mole fraction)
Respond with the number and no other words.

(Q) Tell me solubility (mole fraction) reported for O=[PH](O)c1ccccc1
(A) 0.308

----------
details: in ethyl acetate, 298.15 K
property_label: solubility (mole fraction)
Respond with the number and no other words.

record_smiles	property_label	measured_value
O=[PH](O)c1ccccc1	solubility (mole fraction)	0.0185

(Q) Tell me solubility (mole fraction) reported for c1ccc(OP2(Oc3ccccc3)=NP(Oc3ccccc3)(Oc3ccccc3)=NP(Oc3ccccc3)(Oc3ccccc3)=N2)cc1
(A) 0.0592

----------
conditions: in methanol, 308.35 K
property_label: solubility (mole fraction)
Respond with the number and no other words.

(Q) Tell me solubility (mole fraction) reported for O=[PH](O)c1ccccc1
(A) 0.344

----------
conditions: in acetone, 323.25 K
property_label: solubility (mole fraction)
Respond with the number and no other words.

(Q) Tell me solubility (mole fraction) reported for CP(=O)(O)c1ccccc1
(A) 0.204

----------
conditions: in acetonitrile, 298.25 K
property_label: solubility (mole fraction)
Respond with the number and no other words.

(Q) Tell me solubility (mole fraction) reported for c1ccc(OP2(Oc3ccccc3)=NP(Oc3ccccc3)(Oc3ccccc3)=NP(Oc3ccccc3)(Oc3ccccc3)=N2)cc1
(A) 0.004

----------
conditions: in water, 329.25 K
property_label: solubility (mole fraction)
Respond with the number and no other words.

(Q) Tell me solubility (mole fraction) reported for CP(=O)(O)c1ccccc1
(A) 0.0579

----------
conditions: in benzene, 333.15 K
property_label: solubility (mole fraction)
Respond with the number and no other words.

(Q) Tell me solubility (mole fraction) reported for O=[PH](O)c1ccccc1
(A) 0.554

----------
conditions: in dichloromethane, 303.25 K
property_label: solubility (mole fraction)
Respond with the number and no other words.

(Q) Tell me solubility (mole fraction) reported for CP(=O)(O)c1ccccc1
(A) 0.164

----------
settings: in acetone, 300.25 K
property_label: solubility (mole fraction)
Respond with the number and no other words.

(Q) Tell me solubility (mole fraction) reported for c1ccc(OP2(Oc3ccccc3)=NP(Oc3ccccc3)(Oc3ccccc3)=NP(Oc3ccccc3)(Oc3ccccc3)=N2)cc1
(A) 0.0423
